tested on: pig liver esterase (PLE); experiment: Enzymatic hydrolysis with pig liver esterase (PLE); type: in vitro ADME; conditions: pig liver esterase in phosphate buffer, PLE in phosphate buffer pH 7.3, 37 °C, read-out: PLE t1/2 (converted)
PROPERTY: half-life at 0.45 mM

CCCCCCCCCCCCCCCCCCOP(=O)(O)OP(=O)(O)OP(=O)(O)OP(=O)(O)OC[C@@H]1C=C[C@H](n2cc(C)c(=O)[nH]c2=O)O1
> 50 h
CCCCCCCCCCCCCCCCCCOP(=O)(OCCCC)OP(=O)(O)OP(=O)(O)OP(=O)(O)OC[C@@H]1C=C[C@H](n2cc(C)c(=O)[nH]c2=O)O1 (stereo partly drawn)
> 50 h

Shift focus to the following entry.
Measured half-life at 0.45 mM, `CCCCCCCCCCCCCCCCCCP(=O)(O)OP(=O)(O)OP(=O)(O)OP(=O)(O)OC[C@@H]1C=C[C@H](n2cc(C)c(=O)[nH]c2=O)O1` : > 50 h
